STUDY TARGET: acetylcholinesterase (Rattus norvegicus)
Sequence (P37136 32-614): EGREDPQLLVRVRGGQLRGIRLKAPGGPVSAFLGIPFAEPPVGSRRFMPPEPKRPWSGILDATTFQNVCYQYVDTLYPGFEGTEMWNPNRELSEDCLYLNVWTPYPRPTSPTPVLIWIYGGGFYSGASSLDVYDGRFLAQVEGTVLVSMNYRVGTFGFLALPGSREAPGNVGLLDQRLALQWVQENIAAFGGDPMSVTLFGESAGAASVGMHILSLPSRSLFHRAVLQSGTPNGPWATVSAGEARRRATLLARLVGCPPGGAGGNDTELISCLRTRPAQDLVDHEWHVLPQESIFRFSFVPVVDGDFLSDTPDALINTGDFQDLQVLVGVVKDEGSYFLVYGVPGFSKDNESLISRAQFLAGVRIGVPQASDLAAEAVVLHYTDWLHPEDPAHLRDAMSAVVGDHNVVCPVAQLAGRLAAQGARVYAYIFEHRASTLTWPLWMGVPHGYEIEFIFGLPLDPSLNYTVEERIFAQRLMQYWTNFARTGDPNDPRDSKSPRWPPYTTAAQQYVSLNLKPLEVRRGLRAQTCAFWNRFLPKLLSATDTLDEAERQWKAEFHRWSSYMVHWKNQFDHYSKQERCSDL
pIC50: −log10 of the molar value. Counter-ions that a name gives are not always drawn.
Some compounds, each annotated with its measured pIC50.
MEASUREMENT NAME: pIC50

{"COMPOUND": "COc1cc2c(cc1OC)C(=O)C(F)(CC1CCN(Cc3ccc(O)cc3)CC1)C2 (stereo not drawn) [Example 15, Hydrochloride]", "STUDY TARGET": "acetylcholinesterase (Rattus norvegicus)", "MEASUREMENT NAME": "pIC50", "RESULT VALUE": 9.49}
{"COMPOUND": "COc1cc2c(cc1OC)C(=O)C(F)(CC1CCN(Cc3cccc(F)c3)CC1)C2 (stereo not drawn) [Example 4, Hydrochloride]", "STUDY TARGET": "acetylcholinesterase (Rattus norvegicus)", "MEASUREMENT NAME": "pIC50", "RESULT VALUE": 9.33}
{"COMPOUND": "COc1cc2c(cc1OC)C(=O)C(F)(CC1CCN(CC3CCCCC3)CC1)C2 (stereo not drawn) [Example 6, Hydrochloride]", "STUDY TARGET": "acetylcholinesterase (Rattus norvegicus)", "MEASUREMENT NAME": "pIC50", "RESULT VALUE": 8.77}
{"COMPOUND": "CCCOc1cc2c(cc1OCCC)C(=O)C(F)(CC1CCN(Cc3ccccc3)CC1)C2 (stereo not drawn) [Example 17, Hydrochloride]", "STUDY TARGET": "acetylcholinesterase (Rattus norvegicus)", "MEASUREMENT NAME": "pIC50", "RESULT VALUE": 9.05}
{"COMPOUND": "CCOc1cc2c(cc1OCC)C(=O)C(F)(CC1CCN(Cc3ccccc3)CC1)C2 (stereo not drawn) [Example 1, Hydrochloride]", "STUDY TARGET": "acetylcholinesterase (Rattus norvegicus)", "MEASUREMENT NAME": "pIC50", "RESULT VALUE": 9.42}
{"COMPOUND": "COc1ccc2c(c1)CC(F)(CC1CCN(Cc3ccccc3)CC1)C2=O (stereo not drawn) [Example 12, Hydrochloride]", "STUDY TARGET": "acetylcholinesterase (Rattus norvegicus)", "MEASUREMENT NAME": "pIC50", "RESULT VALUE": 8.92}
{"COMPOUND": "COc1cc2c(cc1OC)C(=O)C(F)(CCCC1CCN(Cc3ccccc3)CC1)C2 (stereo not drawn) [Example 14, Hydrochloride]", "STUDY TARGET": "acetylcholinesterase (Rattus norvegicus)", "MEASUREMENT NAME": "pIC50", "RESULT VALUE": 8.85}
{"COMPOUND": "COc1cc2c(cc1OC)C(=O)C(F)(CC1CCN(Cc3cccc([N+](=O)[O-])c3)CC1)C2 (stereo not drawn) [Example 11, Hydrochloride]", "STUDY TARGET": "acetylcholinesterase (Rattus norvegicus)", "MEASUREMENT NAME": "pIC50", "RESULT VALUE": 9.15}
{"COMPOUND": "COc1cc2c(cc1OC)C(=O)C(F)(CC1CCN(Cc3cccc(C)c3)CC1)C2 (stereo not drawn)", "STUDY TARGET": "acetylcholinesterase (Rattus norvegicus)", "MEASUREMENT NAME": "pIC50", "RESULT VALUE": 9.09}

Cited source for all entries: patent US6677330B1
